Source: patent US8927500B2

Molecular target: MDMX (Homo sapiens, UniProt O15151)
Sequence (O15151 1-125): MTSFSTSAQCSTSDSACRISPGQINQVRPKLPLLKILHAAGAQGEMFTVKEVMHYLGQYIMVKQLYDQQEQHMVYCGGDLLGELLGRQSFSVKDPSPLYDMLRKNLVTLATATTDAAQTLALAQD
Assay: Competitive fluorescence polarization assay for MDMX
Assay type: binding
Details: competitive FP assay, read-out: Ki (MDMX)
pKi: −log10 of the molar value. Where a SMILES comes first, the peptide text is derived from it. Bridges are numbered along the chain shown (N, C = ends). [ ]: non-standard residue; d: D form. Phe(3,4-F2) = N[C@@H](Cc1ccc(F)c(F)c1)C(=O)O; R8 = C=CCCCCCC[C@@](C)(N)C(=O)O; Cba = N[C@@H](CC1CCC1)C(=O)O; S5 = C=CCCC[C@](C)(N)C(=O)O
property-label: pKi

CC(=O)N[C@@H](CC(C)C)C(=O)N[C@H](C(=O)N[C@@H](Cc1ccc(F)c(F)c1)C(=O)N[C@]1(C)CCCCCCC=CCCC[C@@](C)(C(=O)N[C@@H](CO)C(=O)N[C@@H](C)C(=O)N[C@@H](Cc2ccccc2)C(N)=O)NC(=O)[C@H](CC2CCC2)NC(=O)[C@H](CCC(N)=O)NC(=O)[C@H](C)NC(=O)[C@H](Cc2c[nH]c3ccccc23)NC(=O)[C@H](Cc2ccc(O)cc2)NC(=O)[C@H](C)NC1=O)[C@@H](C)O [compound 259] (Ac-LT[Phe(3,4-F2)][R8]AYWAQ[Cba][S5]SAF-NH2; staple 4-11); 7.00 to 8.00
CC(=O)N[C@@H](CC(C)C)C(=O)N[C@H](C(=O)N[C@@H](Cc1ccccc1)C(=O)N[C@]1(C)CCCCCCC=CCCC[C@@](C)(C(=O)N[C@@H](C)C(=O)N[C@@H](Cc2c[nH]cn2)C(=O)N[C@@H](Cc2ccccc2)C(=O)N[C@@H](C)C(N)=O)NC(=O)[C@H](CC(C)C)NC(=O)[C@H](CCC(N)=O)NC(=O)[C@H](C)NC(=O)[C@H](Cc2c[nH]c3ccccc23)NC(=O)[C@H](Cc2ccc(O)cc2)NC(=O)[C@H](C)NC1=O)[C@@H](C)O [compound 50] (Ac-LTF[R8]AYWAQL[S5]AHFA-NH2; staple 4-11); 7.00 to 8.00
CC(=O)N[C@@H](C)C(=O)N[C@@H](CC(C)C)C(=O)N[C@H](C(=O)N[C@@H](Cc1ccccc1)C(=O)N[C@]1(C)CCCCCCC=CCCC[C@@](C)(C(=O)N[C@@H](CO)C(=O)N[C@@H](C)C(=O)N[C@@H](C)C(=O)N[C@H](C)C(N)=O)NC(=O)[C@H](CC2CCC2)NC(=O)[C@H](CCC(N)=O)NC(=O)[C@H](C)NC(=O)[C@H](Cc2c[nH]c3ccccc23)NC(=O)[C@H](Cc2ccc(O)cc2)NC(=O)[C@H](CCC(=O)O)NC1=O)[C@@H](C)O (single isomer, unassigned); > 8.00

Could you now look at the following molecule, please?
Noted for CC(=O)N[C@@H](CC(C)C)C(=O)N[C@H](C(=O)N[C@@H](Cc1ccccc1)C(=O)N[C@]1(C)CCCCCCC=CCCC[C@@](C)(C(=O)N[C@@H](CO)C(=O)O)NC(=O)[C@H](CC2CCC2)NC(=O)[C@H](CCC(N)=O)NC(=O)[C@H](C)NC(=O)[C@H](Cc2c[nH]c3ccccc23)NC(=O)[C@H](Cc2ccc(O)cc2)NC(=O)[C@H](CCC(=O)O)NC1=O)[C@@H](C)O [compound 594] (Ac-LTF[R8]EYWAQ[Cba][S5]S-OH; staple 4-11) : its pKi reads > 8.00

====

Molecular target: MDMX (Homo sapiens)
Assay: Competitive fluorescence polarization assay for MDMX
Type: binding
Conditions: competitive FP assay, read-out: Ki (MDMX)
pKi: −log10 of the molar value. Where a SMILES comes first, the peptide text is derived from it. Bridges are numbered along the chain shown (N, C = ends). [ ]: non-standard residue; d: D form. R8 = C=CCCCCCC[C@@](C)(N)C(=O)O; S5 = C=CCCC[C@](C)(N)C(=O)O
property-label: pKi

CC(=O)N[C@@H](CCC(=O)O)C(=O)N[C@H](C(=O)N[C@@H](Cc1ccccc1)C(=O)N[C@]1(C)CCCCCCC=CCCC[C@@](C)(C(=O)N[C@@H](CO)C(=O)N[C@@H](CC(C)C)C(=O)N[C@@H](C)C(N)=O)NC(=O)[C@H](CC(C)C)NC(=O)[C@H](CCC(N)=O)NC(=O)[C@H](C)NC(=O)[C@H](Cc2c[nH]c3ccccc23)NC(=O)[C@H](Cc2ccc(O)cc2)NC(=O)[C@H](C(C)C)NC1=O)[C@@H](C)O [compound 127] (Ac-ETF[R8]VYWAQL[S5]SLA-NH2; staple 4-11); 7.00 to 8.00

Could you now look at the following compound, please?
Noted for CC[C@H](C)[C@H](NC(C)=O)C(=O)N[C@H](C(=O)N[C@@H](Cc1ccccc1)C(=O)N[C@]1(C)CCCCCCC=CCCC[C@@](C)(C(=O)N[C@@H](C)C(=O)N[C@@H](C)C(=O)N[C@H](C(=O)N[C@H](C)C(N)=O)[C@@H](C)CC)NC(=O)[C@H](CC(C)C)NC(=O)[C@H](CCC(N)=O)NC(=O)[C@H](C)NC(=O)[C@H](Cc2c[nH]c3ccccc23)NC(=O)[C@H](Cc2c[nH]cn2)NC(=O)[C@H](CCC(=O)O)NC1=O)[C@@H](C)O (single isomer, unassigned) [compound 173] : its pKi reads 7.00 to 8.00

====

Target: UniProtKB O15151
Test: Competitive fluorescence polarization assay for MDMX
Assay type: binding
Details: competitive FP assay, read-out: Ki (MDMX)
pKi: −log10 of the molar value.
property-label: pKi

Noted for CC(=O)N[C@@H](CC(C)C)C(=O)N[C@H](C(=O)N[C@@H](Cc1ccccc1)C(=O)N[C@]1(C)CCCCCCC=CCCC[C@@](C)(C(=O)N[C@@H](CO)C(=O)NC(C)(C)C(=O)N[C@@H](C)C(=O)N[C@@H](C)C(N)=O)NC(=O)[C@H](CC(C)C)NC(=O)[C@H](CCC(N)=O)NC(=O)[C@H](C)NC(=O)[C@H](Cc2c[nH]c3ccccc23)NC(=O)[C@H](Cc2ccc(O)cc2)NC(=O)[C@H](C)NC1=O)[C@@H](C)O (single isomer, unassigned) [compound 26] : its pKi reads 7.00 to 8.00

====

Recorded IC50, one value per entry.
Target: MDMX (Homo sapiens, UniProt O15151)
Sequence (O15151 1-125): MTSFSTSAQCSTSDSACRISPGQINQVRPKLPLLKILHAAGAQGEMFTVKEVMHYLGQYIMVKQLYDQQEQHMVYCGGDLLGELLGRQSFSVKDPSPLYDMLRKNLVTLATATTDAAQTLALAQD
Assay: Competitive fluorescence polarization assay for MDMX
Format: binding
Settings: competitive FP assay, read-out: IC50 (MDMX)
Where a SMILES comes first, the peptide text is derived from it. Bridges are numbered along the chain shown (N, C = ends). [ ]: non-standard residue; d: D form. Trp(6-Cl) = N[C@@H](Cc1c[nH]c2cc(Cl)ccc12)C(=O)O; R8 = C=CCCCCCC[C@@](C)(N)C(=O)O; Cba = N[C@@H](CC1CCC1)C(=O)O; hLeu = CC(C)CC[C@H](N)C(=O)O; S5 = C=CCCC[C@](C)(N)C(=O)O; Ac3c = NC1(C(=O)O)CC1

A selection of reference data follows.
CC(=O)N[C@@H](CC(C)C)C(=O)N[C@H](C(=O)N[C@@H](Cc1ccccc1)C(=O)N[C@]1(C)CCCCCCC=CCCC[C@@](C)(C(=O)N[C@@H](CO)C(=O)N[C@@H](C)C(=O)N[C@@H](Cc2ccccc2)C(=O)N[C@H](C)C(N)=O)NC(=O)[C@H](CC2CCC2)NC(=O)[C@H](CCC(N)=O)NC(=O)[C@H](C)NC(=O)[C@H](Cc2c[nH]c3ccccc23)NC(=O)[C@H](Cc2ccc(O)cc2)NC(=O)[C@H](CCC(=O)O)NC1=O)[C@@H](C)O [compound 257] (Ac-LTF[R8]EYWAQ[Cba][S5]SAF[dA]-NH2; staple 4-11); 10 to 100 nM
CC(=O)N[C@@H](CC(C)C)C(=O)N[C@H](C(=O)N[C@@H](Cc1ccccc1)C(=O)N[C@]1(C)CCCCCCC=CCCC[C@@](C)(C(=O)N[C@@H](CO)C(=O)N[C@@H](C)C(=O)N[C@@H](Cc2ccccc2)C(N)=O)NC(=O)[C@H](CC2CCC2)NC(=O)[C@H](CCC(N)=O)NC(=O)[C@H](CO)NC(=O)[C@H](Cc2c[nH]c3ccccc23)NC(=O)[C@H](Cc2ccc(O)cc2)NC(=O)[C@H](C)NC1=O)[C@@H](C)O [compound 262] (Ac-LTF[R8]AYWSQ[Cba][S5]SAF-NH2; staple 4-11); 100 to 1000 nM
CC[C@H](C)[C@H](NC(=O)[C@H](C)NC(=O)[C@H](C)NC(=O)[C@]1(C)CCCC=CCCCCCC[C@@](C)(NC(=O)[C@H](Cc2ccccc2)NC(=O)[C@@H](NC(=O)[C@H](CC(C)C)NC(C)=O)[C@@H](C)O)C(=O)N[C@@H](CCC(=O)O)C(=O)N[C@@H](Cc2ccc(O)cc2)C(=O)N[C@@H](Cc2c[nH]c3ccccc23)C(=O)N[C@@H](C)C(=O)N[C@@H](CCC(N)=O)C(=O)N[C@@H](CC(C)C)C(=O)N1)C(=O)N[C@H](C)C(N)=O (single isomer, unassigned); 100 to 1000 nM
CC(=O)N[C@@H](Cc1ccccc1)C(=O)N[C@]1(C)CCCCCCC=CCCC[C@@](C)(C(=O)N[C@@H](C)C(=O)N[C@@H](C)C(=O)N[C@@H](CCC(C)C)C(N)=O)NC(=O)[C@H](CC(C)C)NC(=O)C2(CC2)NC(=O)[C@H](CCC(=O)O)NC(=O)[C@H](Cc2c[nH]c3ccccc23)NC(=O)[C@H](Cc2ccc(O)cc2)NC(=O)[C@H](C)NC1=O [compound 17] (Ac-F[R8]AYWE[Ac3c]L[S5]AA[hLeu]-NH2; staple 2-9); 10 to 100 nM
CC(=O)N[C@@H](CC(C)C)C(=O)N[C@H](C(=O)N[C@@H](Cc1ccccc1)C(=O)N[C@]1(C)CCCCCCC=CCCC[C@@](C)(C(=O)N[C@@H](CO)C(=O)N[C@@H](C)C(=O)N[C@@H](C)C(N)=O)NC(=O)[C@H](CC2CCC2)NC(=O)[C@H](CCC(N)=O)NC(=O)[C@H](CO)NC(=O)[C@H](Cc2c[nH]c3ccccc23)NC(=O)[C@H](Cc2ccc(O)cc2)NC(=O)[C@H](CCC(=O)O)NC1=O)[C@@H](C)O (single isomer, unassigned); 10 to 100 nM
CC(=O)N[C@@H](CCC(=O)O)C(=O)N[C@H](C(=O)N[C@@H](Cc1ccccc1)C(=O)N[C@]1(C)CCCCCCC=CCCC[C@@](C)(C(=O)N[C@@H](CO)C(=O)N[C@@H](CO)C(=O)N[C@H](C)C(N)=O)NC(=O)[C@H](CC(C)C)NC(=O)[C@H](CCC(N)=O)NC(=O)[C@H](C)NC(=O)[C@H](Cc2c[nH]c3ccccc23)NC(=O)[C@H](Cc2ccc(O)cc2)NC(=O)[C@H](C(C)C)NC1=O)[C@@H](C)O [compound 134] (Ac-ETF[R8]VYWAQL[S5]SS[dA]-NH2; staple 4-11); 100 to 1000 nM

Noted for CCCC[C@H](NC(=O)[C@H](C)NC(=O)[C@H](C)NC(=O)[C@]1(C)CCCC=CCCCCCC[C@@](C)(NC(=O)[C@H](Cc2ccccc2)NC(=O)[C@@H](NC(=O)[C@H](CC(C)C)NC(C)=O)[C@@H](C)O)C(=O)N[C@@H](C)C(=O)N[C@@H](Cc2ccc(O)cc2)C(=O)N[C@@H](Cc2c[nH]c3ccccc23)C(=O)N[C@@H](C)C(=O)N[C@@H](CCC(N)=O)C(=O)N[C@@H](CC(C)C)C(=O)N1)C(=O)N[C@@H](C)C(N)=O (single isomer, unassigned) : its IC50 reads 100 to 1000 nM

Noted for CC[C@H](C)[C@H](NC(=O)[C@H](C)NC(=O)[C@H](C)NC(=O)[C@]1(C)CCCC=CCCCCCC[C@@](C)(NC(=O)[C@H](Cc2ccccc2)NC(=O)[C@@H](NC(=O)[C@H](CC(C)C)NC(C)=O)[C@@H](C)O)C(=O)N[C@@H](C)C(=O)N[C@@H](Cc2ccc(O)cc2)C(=O)N[C@@H](Cc2c[nH]c3cc(Cl)ccc23)C(=O)N[C@@H](C)C(=O)N[C@@H](CCC(N)=O)C(=O)N[C@@H](CC2CCC2)C(=O)N1)C(=O)N[C@H](C)C(N)=O [compound 266] (Ac-LTF[R8]AY[Trp(6-Cl)]AQ[Cba][S5]AAI[dA]-NH2; staple 4-11) : its IC50 reads 100 to 1000 nM
